test: Tmax in Wistar rat at 10 mg/kg, po by LC-MS/MS analysis; format: ADME, organism-based; conditions: in vivo
Reported Tmax values for the following molecules.
Write the value in h as a bare number.

Before answering, review these 3 worked examples.
Task: Return reported Tmax; argument: Cc1cc(C(c2ccc(Cl)cc2)c2ccc(Cl)cc2)sc1C(=O)N[C@@H](CCCNC(=N)N)C(=O)O
Result: 5

Task: Return reported Tmax; argument: N=C(N)NCCC[C@H](NC(=O)c1ccc(C(c2ccccc2)c2ccccc2)s1)C(=O)O
Result: 3.5

Task: Return reported Tmax; argument: N=C(N)NCCC[C@H](NC(=O)c1ccc(C(c2ccc(Cl)cc2)c2ccc(Cl)cc2)s1)C(=O)O
Result: 4

More entries:
Task: Return reported Tmax; argument: Cc1cc(C(c2ccccc2)c2ccccc2)sc1C(=O)N[C@@H](CCCNC(=N)N)C(=O)O
Result: 4
